Test system: Bacteria
EXPERIMENTAL_DETAILS: Inhibition of bacterial beta-lactamase KPC-2 expressed in Escherichia coli BL21 (DE3) using nitrocefin as substrate at 1 uM by spectrophotometric analysis relative to control
Tick 1 if inhibition is 30% or greater. Tick 0 if inhibition is less than 30%.

Examples from the recorded data:
- SUBSTANCE_SMILES: "[N-]=[N+]=Nc1ccc(F)c(B(O)O)c1"
  ASSIGNED_LABEL: 1
- SUBSTANCE_SMILES: "O=C(Nc1cccc(B(O)O)c1)c1cc2ccccc2s1"
  ASSIGNED_LABEL: 0
- SUBSTANCE_SMILES: "OB(O)c1cccc(Cn2cc(-c3ccsc3)nn2)c1"
  ASSIGNED_LABEL: 1
- SUBSTANCE_SMILES: "CC(C)(C)c1cn(-c2cccc(B(O)O)c2)nn1"
  ASSIGNED_LABEL: 0
- SUBSTANCE_SMILES: "COc1ccc(-c2cn(Cc3ccc(B(O)O)cc3)nn2)cc1"
  ASSIGNED_LABEL: 1

Say whether `O=C(Nc1cccc(B(O)O)c1)c1ccc2sccc2c1` shows inhibition of 30% or more.
0

Evaluate `CC(C)(C)c1cn(Cc2cccc(B(O)O)c2)nn1` : inhibition at minimum 30%?
1

Please tell me: is the compound `CCOC(=O)c1cn(Cc2cccc(B(O)O)c2)nn1` at or over 30% in terms of inhibition?
0
